These measurements were taken from BindingDB's records for doi:10.7270/Q2GH9GBT.

# Subject Of Test: Bcl-2-like protein 10 [11-204] (Homo sapiens)
# Construct: 11-204
# Sequence (Q9HD36 11-204): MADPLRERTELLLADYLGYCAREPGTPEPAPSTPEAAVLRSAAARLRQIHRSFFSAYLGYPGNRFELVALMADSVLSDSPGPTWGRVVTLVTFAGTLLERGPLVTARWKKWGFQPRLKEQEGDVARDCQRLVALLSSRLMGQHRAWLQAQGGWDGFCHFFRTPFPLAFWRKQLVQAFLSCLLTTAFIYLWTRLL
# Test Description: regulators of Bim-Bcl-B binding, dose response, biochemical, multiplexed, bead-based flow cytometry, human (AID 1327)
Please note: EC50 exactly at 9 µM is label 0. Only values below 9 µM get label 1.

1) Clc1nc2ccccc2cc1CN=Nc1nc2ccccc2[nH]1 | label 0
2) Clc1ccc2c(N=NCc3ccccc3Br)ccnc2c1 | label 0
3) O=c1c2c(n3nnnc3n1Cc1ccccc1)-c1ccccc1CC21CCCC1 | label 1
4) Cc1cccc(OCC(=O)NCC(=O)NN=Cc2cc(Br)ccc2OCc2ccccc2)c1 | label 1
5) O=S1(=O)N=C(N(CCO)N=Cc2ccncc2)c2ccccc21 | label 0
6) Cc1cc(N)ccc1N1CCCC1 | label 1
7) COc1cc(CN=Nc2nn3cnnc3c3ccccc23)ccc1O | label 1
8) COc1cccc(CN=Nc2nn3cnnc3c3ccccc23)c1 | label 1
9) OCCN1CCN(CCCc2c3c(cc4c2CCC4)CCC3)CC1 | label 0
10) Cc1nc2ncccn2c1-c1csc(Nc2ccc(O)cc2)n1 | label 1
